# target.of.assay: human PAD4 (Homo sapiens, UniProt Q9UM07)
# Construct: human PAD4 (NM_012387), A2-P663, was PCR amplified; His-SUMO (N, cleaved yes)
# Sequence (Q9UM07 2-663): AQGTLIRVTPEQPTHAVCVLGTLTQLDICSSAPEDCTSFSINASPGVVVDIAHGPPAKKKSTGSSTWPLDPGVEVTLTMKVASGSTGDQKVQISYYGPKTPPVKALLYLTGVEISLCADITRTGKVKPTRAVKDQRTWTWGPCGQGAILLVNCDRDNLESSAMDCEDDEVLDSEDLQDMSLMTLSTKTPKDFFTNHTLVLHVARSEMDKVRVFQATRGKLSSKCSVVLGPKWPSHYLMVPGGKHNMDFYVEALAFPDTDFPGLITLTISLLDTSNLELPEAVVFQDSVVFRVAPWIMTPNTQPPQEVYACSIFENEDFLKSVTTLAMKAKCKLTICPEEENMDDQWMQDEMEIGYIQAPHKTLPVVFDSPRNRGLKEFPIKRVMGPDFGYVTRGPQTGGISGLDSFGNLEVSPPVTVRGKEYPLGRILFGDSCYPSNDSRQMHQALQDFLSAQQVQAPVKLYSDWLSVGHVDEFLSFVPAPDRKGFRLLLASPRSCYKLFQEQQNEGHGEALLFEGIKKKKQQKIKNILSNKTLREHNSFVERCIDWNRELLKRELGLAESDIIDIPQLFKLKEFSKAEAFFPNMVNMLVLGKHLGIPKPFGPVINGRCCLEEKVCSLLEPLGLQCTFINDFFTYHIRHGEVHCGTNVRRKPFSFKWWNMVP
# method.description: In vitro PAD4 BAEE biochemical assay
# particulars: BAEE substrate 3 mM, 5 nM PAD4, 2 mM calcium chloride; geometric mean of multiple experiments
recorded.metric: IC50 (nM)

{"molecule": "COc1cc(C(=O)N[C@H]2CNCC[C@@H]2F)cc2nc(-c3cc4ccc5nc4n3CCCCCc3c(cnn3C)C(=O)N[C@@H]5C)n(C)c12 [Example 180]", "unit": "nM", "recorded.measurement": 75}
{"molecule": "C[C@H]1NC(=O)[C@@](F)(c2ccccn2)CCCCCCn2c(-c3nc4cc(C(=O)N5C[C@H](N)[C@@H]6CC[C@H]5C6)cc(F)c4n3C3CC3)cc3ccc1nc32 [Example 885]", "unit": "nM", "recorded.measurement": 11}
{"molecule": "COc1cc(C(=O)N2CCC[C@@H](N)[C@H]2C)cc2nc(-c3cc4ccc5nc4n3CC(F)(F)CCCc3cncc(F)c3C(=O)N[C@@H]5C)n(C)c12 [Example 679]", "unit": "nM", "recorded.measurement": 33}
{"molecule": "COc1cc(C(=O)N2CC[C@@H](OC)[C@@H](N)C2)cc2nc(-c3cc4ccc5nc4n3CCCCCc3nc4ccccc4nc3C(=O)N[C@@H]5C)n(C)c12 [Example 414]", "unit": "nM", "recorded.measurement": 125}

(I) COc1cc(C(=O)N2CC[C@H]3OCCN[C@H]3C2)cc2nc(-c3cc4ccc5cc4n3CCCCCCC3(CC3)C(=O)N[C@@H]5C)n(C)c12 [Example 208]
(II) C[C@H]1NC(=O)[C@]2(C)C[C@H]2CCCCCn2c(-c3nc4cc(C(=O)N[C@H]5CNCC[C@@H]5F)c(F)cc4n3C3CC3)cc3ccc1nc32 [Example 544]
*Q* For the two items I and II , which reports the higher IC50 value? Use the label to indicate which entry you chose.
*A* I

---

# target.of.assay: human PAD4 (Homo sapiens, UniProt Q9UM07)
# Construct: human PAD4 (NM_012387), A2-P663, was PCR amplified; His-SUMO (N, cleaved yes)
# method.description: In vitro PAD4 BAEE biochemical assay
# particulars: BAEE substrate 3 mM, 5 nM PAD4, 2 mM calcium chloride; geometric mean of multiple experiments
pIC50: −log10 of the molar value.
recorded.metric: pIC50

{"molecule": "C[C@H]1NC(=O)c2ncccc2CCCCCn2c(-c3nc4cc(C(=O)N[C@H]5CNCC[C@@H]5F)c(F)cc4n3C)cc3ccc1nc32 [Example 498]", "pIC50": 7.17}
{"molecule": "COc1cc(C(=O)N2CC[C@@H](OC)[C@@H](N)C2)cc2nc(-c3cc4ccc5nc4n3CCCCCc3nccc(Cl)c3C(=O)N[C@@H]5C)n(C)c12 [Example 831]", "pIC50": 7.12}

(P) COc1cc(C(=O)N2C[C@H](N)[C@@H]3CC[C@H]2C3)cc2nc(-c3cc4ccc5nc4n3CC(F)(F)CCC[C@@H]3C[C@H]3C(=O)N[C@@H]5C)n(C)c12 [Example 442]
(Q) COC[C@@H]1[C@H](N)CCCN1C(=O)c1cc(OC)c2c(c1)nc(-c1cc3ccc4nc3n1CCCCC[C@@H]1C[C@H]1C(=O)N[C@@H]4C)n2C [Example 411]
*Q* For the two items P and Q , which reports the higher pIC50 value? Use the label to indicate which entry you chose.
*A* P
(P: 7.49, Q: 6.40)

(a) COc1cc(C(=O)N2CC[C@@H](OC)[C@@H](N)C2)cc2nc(-c3cc4ccc5nc4n3CCCCCc3cc(Cl)ncc3C(=O)N[C@@H]5C)n(C)c12 [Example 653]
(b) COc1cc(C(=O)N[C@H]2CNCC[C@@H]2F)cc2nc(-c3cc4ccc5nc4n3CCCCC[C@@H]3C[C@@H]3C(=O)N[C@@H]5C)n(C)c12 [Example 523]
(c) COc1cc(C(=O)N2C[C@H]3OC[C@@H]2[C@@H]3N)cc2nc(-c3cc4ccc5nc4n3CCCCCCC(C)(C)C(=O)N[C@@H]5C)n(C)c12 [Example 708]
(d) COc1cc(C(=O)N2[C@H]3CC[C@@H]2[C@H](N)C3)cc2nc(-c3cc4ccc5nc4n3CCCCCC[C@@H](C)C(=O)N[C@@H]5C)c(C)n12 [Example 122]
(e) COc1cc(C(=O)N[C@H]2CNC[C@H]2F)cc2nc(-c3cc4ccc5nc4n3CCCCCCC(C)(C)C(=O)N[C@@H]5C)n(C)c12 [Example 199]
*Q* rank_up(items): orders items by reported pIC50 in ascending numerical order. Answer by naming the labels in the order asked.
*A* e, b, c, a, d
(e: 4.74, b: 6.69, c: 7.04, a: 7.36, d: 7.80)

(1) COc1cc(C(=O)N2C[C@H](N)[C@@H]3CC[C@H]2C3)cc2nc(-c3cc4ccc5nc4n3CCCc3ccc4cccc(c4c3)C(=O)N[C@@H]5C)n(C)c12 [Example 950]
(2) COc1cc(C(=O)N2CCC(OC3CC3)C(N)C2)cc2nc(-c3cc4ccc5nc4n3CCCCCCC(C)(C)C(=O)N[C@@H]5C)n(C)c12 (stereo partly shown) [Example 527]
(3) COc1cc(C(=O)N2[C@H]3CC[C@@H]2[C@H](N)C3)cc2nc(-c3cc4ccc5nc4n3CCCCCOC(C)(C)C(=O)N[C@@H]5C)n(C)c12 [Example 21]
(4) [2H]C1([2H])CCCn2c(-c3nc4cc(C(=O)N5C[C@H](N)[C@@H]6CC[C@H]5C6)cc(F)c4n3C3CC3)cc3ccc(nc32)[C@@H](C)NC(=O)c2ccc(Cl)nc2C1([2H])[2H] [Example 951]
(5) C[C@H]1NC(=O)C(C)(C)CCCCCCn2c(-c3nc4cc(C(=O)N[C@H]5CNCC[C@@H]5F)c(Cl)cc4n3C)cc3ccc1nc32 [Example 541]
*Q* Hey, quick one: sort these by pIC50, largest value first please. Answer by naming the labels in the order asked.
*A* 4, 1, 3, 5, 2
(4: 7.62, 1: 7.42, 3: 7.20, 5: 6.91, 2: 6.67)

---

# target.of.assay: human PAD4 (Homo sapiens)
# Construct: human PAD4 (NM_012387), A2-P663, was PCR amplified; His-SUMO (N, cleaved yes)
# method.description: In vitro PAD4 BAEE biochemical assay
# particulars: BAEE substrate 3 mM, 5 nM PAD4, 2 mM calcium chloride; geometric mean of multiple experiments
recorded.metric: IC50 (nM)

Illustrative cases are given below, each with its answer.
{"smiles.text": "COc1cc(C(=O)N2CC[C@@H]3CCN[C@@H]3C2)cc2nc(-c3cc4ccc5nc4n3CCCCCCC(C)(C)C(=O)N[C@@H]5C)n(C)c12", "unit": "nM", "IC50": 505}
{"smiles.text": "COc1cc(C(=O)N2[C@H]3CC[C@@H]2[C@H](N)C3)cc2nc(-c3cc4ccc5nc4n3CCCCCCCN(C)C(=O)N[C@@H]5C)c(C)n12", "unit": "nM", "IC50": 34}
{"smiles.text": "COc1cc(C(=O)N[C@H]2CNCC[C@@H]2F)cc2nc(-c3cc4ccc5nc4n3Cc3ccccc3CCCCC(=O)N[C@@H]5C)n(C)c12", "unit": "nM", "IC50": 683}
{"smiles.text": "COc1cc(C(=O)N2C[C@H](N)[C@@H]3CC[C@H]2C3)cc2nc(-c3cc4ccc5nc4n3CCCCC[C@@]3(F)C[C@H]3C(=O)N[C@@H]5C)n(C)c12", "unit": "nM", "IC50": 19}

(I) COc1cc(C(=O)N2C[C@H]3CC[C@@H]2[C@@H]3N)cc2nc(-c3cc4ccc5nc4n3CCCCCc3nccnc3C(=O)N[C@@H]5C)n(C)c12
(II) COc1cc(C(=O)N2C[C@H](N)[C@@H]3CC[C@H]2C3)cc2nc(-c3cc4ccc5nc4n3CCCCCc3ccccc3C(=O)N[C@@H]5C)c(C)n12
*Q* Of I versus II , which is the one with smaller reported IC50? Use the label to indicate which entry you chose.
*A* II
(II: 39 nM, I: 86 nM)

(I) C[C@H]1NC(=O)[C@@H]2C[C@H]2CCCCCn2c(-c3nc4cc(C(=O)N[C@H]5CNCC[C@@H]5F)c(F)cc4n3C)cc3ccc1cc32
(II) COc1cc(C(=O)N2CC[C@@H]3CCN[C@@H]3C2)cc2nc(-c3cc4ccc5nc4n3CCCCC[C@@H]3C[C@H]3C(=O)N[C@@H]5C)n(C)c12
*Q* Of I versus II , which is the one with smaller reported IC50? Use the label to indicate which entry you chose.
*A* I

(A) C[C@H]1NC(=O)c2ccccc2CCCC(F)(F)Cn2c(-c3nc4cc(C(=O)N[C@H]5CNCC[C@@H]5F)c(F)cc4n3C)cc3ccc1nc32
(B) COc1cc(C(=O)N[C@@H]2CCCCNC2)cc2nc(-c3cc4ccc5nc4n3CCCCCCC(C)(C)C(=O)N[C@@H]5C)n(C)c12
*Q* Of A versus B , which is the one with smaller reported IC50? Use the label to indicate which entry you chose.
*A* A

(a) COc1cc(C(=O)N2C[C@H](N)[C@@H]3CC[C@H]2C3)cc2nc(-c3cc4ccc5nc4n3CCCCCC(C)(C)C(=O)N[C@@H]5C)n(C)c12
(b) COc1cc(C(=O)N2C[C@H](N)[C@@H]3CC[C@H]2C3)cc2nc(-c3cc4ccc5nc4n3CCCCCc3c(ccc(F)c3F)C(=O)N[C@@H]5C)n(C)c12
*Q* For the two items a and b , which reports the higher IC50 value? Use the label to indicate which entry you chose.
*A* b
(b: 55 nM, a: 37 nM)
